Target: HLA-A*31:01
Assay: IEDB peptide-MHC binding, purified MHC/competitive/fluorescence; filed as Kd, often an IC50 or EC50 that approximates it; bounds were set here for any values at or beyond the usual limits of such assays
Conditions: source organism: Yellow fever virus
measured-endpoint: Kd (nM)
Return type: number; implicit unit nM.

What value of Kd on HLA-A*31:01 does VMYNLWKMK have?
5.67

----------
Biological target: HLA-B*57:01
Assay: IEDB peptide-MHC binding, purified MHC/direct/fluorescence; filed as Kd, often an IC50 or EC50 that approximates it; bounds were set here for any values at or beyond the usual limits of such assays
Details: source organism: Bacillus anthracis
measured-endpoint: Kd (µM)
Return type: number; implicit unit µM.

What value of Kd on HLA-B*57:01 does TVIRFWHAM have?
0.593
